Parameter: Signal (FLU). Scope: all listed entries.
- target system: T1, human DR3 (TNFRSF25) expressed on cells (human, UniProt Q93038 25-417)
- T1 sequence: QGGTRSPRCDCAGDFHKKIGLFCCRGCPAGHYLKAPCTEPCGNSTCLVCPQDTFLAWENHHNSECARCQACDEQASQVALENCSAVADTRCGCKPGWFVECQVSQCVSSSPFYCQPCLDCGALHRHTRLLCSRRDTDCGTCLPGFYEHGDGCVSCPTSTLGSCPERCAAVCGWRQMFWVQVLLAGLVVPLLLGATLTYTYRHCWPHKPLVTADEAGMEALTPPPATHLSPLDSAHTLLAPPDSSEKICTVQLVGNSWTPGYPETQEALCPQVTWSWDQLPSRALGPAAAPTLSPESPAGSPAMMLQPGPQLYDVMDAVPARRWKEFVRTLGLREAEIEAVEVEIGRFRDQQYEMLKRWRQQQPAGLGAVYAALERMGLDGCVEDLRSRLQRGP
- run description: cell-based or functional assay
Give your result in FLU as a bare value.

// known answers, use as guide
[[record]]
binder = "VHg2/VLs10 (antibody, human IgG1, V domains shown, human IgG1; also called VHg2_VLg10) VH: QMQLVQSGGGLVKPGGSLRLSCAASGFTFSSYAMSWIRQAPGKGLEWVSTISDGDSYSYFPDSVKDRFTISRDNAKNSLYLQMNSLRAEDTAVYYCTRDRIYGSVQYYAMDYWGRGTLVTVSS VL: ETTLTQSPGTLSLSPGERATLSCRASQSVSSSSLAWYQQKPGQAPRLLIYGASSRATGIPDRFSGSGSGTDFTLTISRLEPEDFAVYYCHQYGGSWTFGKGTKVEIK"
measured_attribute = "Signal (FLU)"
recorded_number = "2.34e+06"

[[record]]
binder = "VHg6/VLg12 (antibody, human IgG1, V domains shown, human IgG1) VH: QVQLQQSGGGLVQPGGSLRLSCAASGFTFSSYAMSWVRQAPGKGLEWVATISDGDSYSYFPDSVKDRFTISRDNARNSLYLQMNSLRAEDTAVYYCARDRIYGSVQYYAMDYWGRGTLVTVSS VL: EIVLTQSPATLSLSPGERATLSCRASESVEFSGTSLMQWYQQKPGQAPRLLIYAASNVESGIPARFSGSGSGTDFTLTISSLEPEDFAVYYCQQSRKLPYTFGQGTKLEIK"
measured_attribute = "Signal (FLU)"
recorded_number = "2.47e+06"

[[record]]
binder = "VHg2/VLg6 (antibody, human IgG1, V domains shown) VH: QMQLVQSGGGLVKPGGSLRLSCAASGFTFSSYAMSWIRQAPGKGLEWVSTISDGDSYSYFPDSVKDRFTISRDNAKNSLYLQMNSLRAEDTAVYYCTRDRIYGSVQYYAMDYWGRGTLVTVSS VL: DVVMTQSPPSLPVTPGEPASISCRASESVEFSGTSLMQWYLQKPGQSPQVLIYAASNVESGVPDRFSGSGSGTDFTLKISRVEAEDVGVYYCQQSRKLPYTFGQGTRLEIK"
measured_attribute = "Signal (FLU)"
recorded_number = "1.62e+06"

[[record]]
binder = "VHg9/VLg6 (antibody, human IgG1, V domains shown) VH: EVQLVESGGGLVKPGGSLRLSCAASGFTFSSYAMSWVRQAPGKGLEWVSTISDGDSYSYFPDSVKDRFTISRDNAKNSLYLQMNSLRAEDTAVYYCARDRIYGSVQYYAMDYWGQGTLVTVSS VL: DVVMTQSPPSLPVTPGEPASISCRASESVEFSGTSLMQWYLQKPGQSPQVLIYAASNVESGVPDRFSGSGSGTDFTLKISRVEAEDVGVYYCQQSRKLPYTFGQGTRLEIK"
measured_attribute = "Signal (FLU)"
recorded_number = "2.32e+06"


-- ask Give the reported Signal (FLU) for this binder. VHg10/VLg11 (antibody, human IgG1, V domains shown, human IgG1) VH: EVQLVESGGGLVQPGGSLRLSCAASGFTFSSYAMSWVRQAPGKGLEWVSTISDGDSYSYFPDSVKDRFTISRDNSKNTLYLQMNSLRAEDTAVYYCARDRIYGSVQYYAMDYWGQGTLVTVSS VL: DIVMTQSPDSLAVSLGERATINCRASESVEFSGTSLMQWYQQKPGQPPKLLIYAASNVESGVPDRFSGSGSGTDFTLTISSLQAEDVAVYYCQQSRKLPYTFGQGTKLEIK
-- reply 3.24e+06
